Origin of measurements: patent US8952024B2

System: velvetleaf (Abutilon theophrasti)
TEST METHOD NOTES: Test B pre-/postemergence plant response
Type: in vivo
MEASUREMENT SETUP: Postemergence, 31 g ai/ha; 0 to 100 scale (0 no effect, 100 complete control)
PARAMETER MEASURED: Plant response rating, Velvetleaf

COMPOUND	EXPERIMENTAL SYSTEM	PARAMETER MEASURED	READOUT NUMBER
O=C1CCCC(O)=C1C(=O)c1cnc(-c2ccccc2)n(C2CC[S+]([O-])CC2)c1=O (mixture of isomers) [Compound 169]	velvetleaf (Abutilon theophrasti)	Plant response rating, Velvetleaf	100
O=C1CCCC(O)=C1C(=O)c1cnc(-c2ccccc2)n(C2CCOCC2)c1=O [Compound 129]	velvetleaf (Abutilon theophrasti)	Plant response rating, Velvetleaf	95
Cc1ccc(-n2c(-c3cc(F)cc(F)c3)ncc(C(=O)C3=C(O)CCCC3=O)c2=O)cc1 [Compound 162]	velvetleaf (Abutilon theophrasti)	Plant response rating, Velvetleaf	80
CCCCn1c(C2CC2)ncc(C(=O)C2=C(O)CCCC2=O)c1=O [Compound 193]	velvetleaf (Abutilon theophrasti)	Plant response rating, Velvetleaf	90
CCCn1c(-c2cc(Cl)cc(Cl)c2)ncc(C(=O)C2=C(O)CCCC2=O)c1=O [Compound 173]	velvetleaf (Abutilon theophrasti)	Plant response rating, Velvetleaf	100

====

System: blackgrass (Alopecurus myosuroides)
TEST METHOD NOTES: Test B pre-/postemergence plant response
Assay type: in vivo
MEASUREMENT SETUP: Preemergence, 125 g ai/ha; scale 0 to 100, 0 no effect, 100 complete control
Description: […] Treated plants and controls were maintained in a greenhouse for 13 to 15 days, after which time all treated plants were visually evaluated and compared to controls. […]

COMPOUND STRUCTURE	EXPERIMENTAL SYSTEM	Plant response rating, Blackgrass
O=C1CCCC(O)=C1C(=O)c1cnc(-c2cccc(Br)c2)n(-c2ccccc2)c1=O	blackgrass (Alopecurus myosuroides)	0
CCCCc1ncc(C(=O)C2=C(O)CCCC2=O)c(=O)n1-c1ccccc1C	blackgrass (Alopecurus myosuroides)	0
Cc1ccc(Cl)cc1-n1c(-c2ccccc2)ncc(C(=O)C2=C(O)CCCC2=O)c1=O	blackgrass (Alopecurus myosuroides)	0
CCCCn1c(C2CC2)ncc(C(=O)C2=C(O)CCCC2=O)c1=O	blackgrass (Alopecurus myosuroides)	30

====

System: Surinam grass (Brachiaria decumbens)
TEST METHOD NOTES: Test B pre-/postemergence plant response
Type: in vivo
MEASUREMENT SETUP: Preemergence, 125 g ai/ha; 0 to 100 scale
From the text: […] Treated plants and controls were maintained in a greenhouse for 13 to 15 days, after which time all treated plants were visually evaluated and compared to controls. […]
Listing: Surinam Grass plant response rating of selected compounds
PARAMETER MEASURED: Surinam Grass plant response rating

COMPOUND STRUCTURE	RESULT
O=C1CCCC([O-])=C1C(=O)c1cnc(-c2ccccc2)n(-c2ccccc2)c1=O.[K+]	60
O=C1CCCC(O)=C1C(=O)c1cnc(-c2ccccc2)n(-c2ccccc2)c1=O	60
Cc1cc(F)ccc1-n1c(-c2ccccc2)ncc(C(=O)C2=C(O)CCCC2=O)c1=O	100
CCCn1c(-c2ccccc2)ncc(C(=O)C2=C(O)CCCC2=O)c1=O	98
Cc1cccc(-n2c(-c3cccc(Cl)c3)ncc(C(=O)C3=C(O)CCCC3=O)c2=O)c1	98

====

Listing: Plant response rating, Canarygrass of selected compounds
Tested on: canarygrass (Phalaris minor)
TEST METHOD NOTES: Test B postemergence plant response
Type: in vivo
MEASUREMENT SETUP: 31 g ai/ha, postemergence; scale 0 to 100, 0 is no effect, 100 is complete control

COMPOUND	Plant response rating, Canarygrass
O=C1CCCC(O)=C1C(=O)c1cnc(C2CC2)n(-c2ccccc2)c1=O [Compound 87]	0
O=C1CCCC(O)=C1C(=O)c1cnc(-c2ccsc2)n(CC2CCCO2)c1=O (stereo not drawn) [Compound 98]	5
COCCOCCn1c(-c2ccccc2)ncc(C(=O)C2=C(O)CCCC2=O)c1=O [Compound 91]	25
Cc1cccc(-n2c(-c3ccccc3)ncc(C(=O)C3=C(O)CCCC3=O)c2=O)c1F [Compound 58]	60
O=C1CCCC(O)=C1C(=O)c1cnc(-c2ccccc2)n(C2CC2)c1=O [Compound 90]	5
CCCn1c(-c2ccsc2)ncc(C(=O)C2=C(O)CCCC2=O)c1=O [Compound 93]	0
O=C1CCCC(O)=C1C(=O)c1cnc(-c2cccs2)n(CC2CCCO2)c1=O (stereo not drawn) [Compound 109]	0
CCCCn1c(CCC)ncc(C(=O)C2=C(O)CCCC2=O)c1=O [Compound 75]	0
CCOCCn1c(-c2ccccc2)ncc(C(=O)C2=C(O)CCCC2=O)c1=O [Compound 96]	0

====

Test system: lambsquarters (Chenopodium album)
TEST METHOD NOTES: Test B pre-/postemergence plant response
Format: in vivo
MEASUREMENT SETUP: Postemergence, 31 g ai/ha; 0 to 100 scale (0 no effect, 100 complete control)
Listing: Plant response rating, Lambsquarters of selected compounds

COMPOUND	Plant response rating, Lambsquarters
Cc1ccc(-n2c(-c3cc(F)cc(F)c3)ncc(C(=O)C3=C(O)CCCC3=O)c2=O)cc1	80
CCn1c(-c2cccc(F)c2)ncc(C(=O)C2=C(O)C3CCC(C3)C2=O)c1=O (stereo not drawn)	98
CCCn1c(-c2ccccc2)ncc(C(=O)C2=C(O)C3CCC(C3)C2=O)c1=O (stereo not drawn)	90

====

System: barnyardgrass (Echinochloa crus-galli)
TEST METHOD NOTES: Test A pre-/postemergence plant response
Format: in vivo
MEASUREMENT SETUP: Preemergence, 125 g ai/ha; 0 to 100 scale, 0 = no effect, 100 = complete control
Listing: Plant response rating, Barnyardgrass of selected compounds

COMPOUND	Plant response rating, Barnyardgrass
CCc1cccc(-n2c(-c3ccccc3)ncc(C(=O)C3=C(O)CCCC3=O)c2=O)c1 [Compound 220]	10
Cc1ccc(-n2c(-c3ccccc3)ncc(C(=O)C3=C(O)CCCC3=O)c2=O)cc1C [Compound 32]	0
O=C1CCCC(O)=C1C(=O)c1cnc(-c2ccsc2)n(CC2CCCO2)c1=O (centres unmarked) [Compound 98]	0
O=C1CCCC(O)=C1C(=O)c1cnc(-c2cccs2)n(-c2ccccc2)c1=O [Compound 66]	20
COCCCn1c(-c2cccc(Cl)c2)ncc(C(=O)C2=C(O)CCCC2=O)c1=O [Compound 143]	40

====

Test system: pigweed (Amaranthus retroflexus)
TEST METHOD NOTES: Test B pre-/postemergence plant response
Type: in vivo
MEASUREMENT SETUP: Postemergence, 125 g ai/ha; visual rating after 13 to 15 days, scale 0 (no effect) to 100 (complete control)

COMPOUND STRUCTURE	EXPERIMENTAL SYSTEM	Plant response rating, Pigweed
O=C1CCCC(O)=C1C(=O)c1cnc(-c2cccs2)n(-c2ccccc2)c1=O	pigweed (Amaranthus retroflexus)	100
CC(C)Cc1ncc(C(=O)C2=C(O)CCCC2=O)c(=O)n1-c1ccccc1	pigweed (Amaranthus retroflexus)	100
CCCc1ncc(C(=O)C2=C(O)CCCC2=O)c(=O)n1CCC	pigweed (Amaranthus retroflexus)	100
O=C1CCCC(O)=C1C(=O)c1cnc(-c2cccc(Cl)c2)n(-c2ccccc2)c1=O	pigweed (Amaranthus retroflexus)	98
O=C1CCCC(O)=C1C(=O)c1cnc(-c2ccccc2)n(-c2ccccc2Br)c1=O	pigweed (Amaranthus retroflexus)	98
O=C1CCCC(O)=C1C(=O)c1cnc(-c2ccc(Br)cc2)n(-c2ccccc2)c1=O	pigweed (Amaranthus retroflexus)	98
CCn1c(-c2ccccc2)ncc(C(=O)C2=C(O)CCCC2=O)c1=O	pigweed (Amaranthus retroflexus)	95

====

System: velvetleaf (Abutilon theophrasti)
TEST METHOD NOTES: Test B pre-/postemergence plant response
Assay type: in vivo
MEASUREMENT SETUP: 250 g ai/ha, Preemergence, 0 to 100 scale

MOLECULE	Plant response rating, Velvetleaf
Cc1cccc(-n2c(-c3cccc(Cl)c3)ncc(C(=O)C3=C(O)CCCC3=O)c2=O)c1 [Compound 45]	95
O=C1CCCC([O-])=C1C(=O)c1cnc(-c2ccccc2)n(-c2ccccc2)c1=O.[K+] [Compound 14]	100
Cc1cccc(-n2c(-c3ccccc3)ncc(C(=O)C3=C(O)CCCC3=O)c2=O)c1C [Compound 27]	95
Cc1ccc(-n2c(-c3cccc(Cl)c3)ncc(C(=O)C3=C(O)CCCC3=O)c2=O)cc1 [Compound 39]	98
O=C1CCCC(O)=C1C(=O)c1cnc(-c2ccccc2)n(-c2ccccc2Br)c1=O [Compound 37]	98

====

Listing: Plant response rating, Cupgrass, Woolly of selected compounds
System: woolly cupgrass (Eriochloa villosa)
TEST METHOD NOTES: Test B pre-/postemergence plant response
Type: in vivo
MEASUREMENT SETUP: 31 g ai/ha, postemergence; scale 0 to 100, 0 is no effect, 100 is complete control

COMPOUND STRUCTURE	EXPERIMENTAL SYSTEM	Plant response rating, Cupgrass, Woolly
Cc1ccc(F)c(-n2c(-c3ccccc3)ncc(C(=O)C3=C(O)CCCC3=O)c2=O)c1	woolly cupgrass (Eriochloa villosa)	75
CCCn1c(-c2ccsc2)ncc(C(=O)C2=C(O)CCCC2=O)c1=O	woolly cupgrass (Eriochloa villosa)	45
O=C1CCCC(O)=C1C(=O)c1cnc(-c2cccs2)n(-c2ccccc2)c1=O	woolly cupgrass (Eriochloa villosa)	40
CCCc1ncc(C(=O)C2=C(O)CCCC2=O)c(=O)n1CCC	woolly cupgrass (Eriochloa villosa)	45
CCCn1c(-c2ccccc2)ncc(C(=O)C2=C(O)CCCC2=O)c1=O	woolly cupgrass (Eriochloa villosa)	70
O=C1CCCC(O)=C1C(=O)c1cnc(-c2ccsc2)n(C2CCCCC2)c1=O	woolly cupgrass (Eriochloa villosa)	70
Cc1ccc(Cl)cc1-n1c(-c2ccccc2)ncc(C(=O)C2=C(O)CCCC2=O)c1=O	woolly cupgrass (Eriochloa villosa)	70
CCn1c(-c2ccccc2)ncc(C(=O)C2=C(O)CCCC2=O)c1=O	woolly cupgrass (Eriochloa villosa)	50
